Molecular target: E. coli RNase P holoenzyme (M1 P RNA + rnpA protein)
Sequence: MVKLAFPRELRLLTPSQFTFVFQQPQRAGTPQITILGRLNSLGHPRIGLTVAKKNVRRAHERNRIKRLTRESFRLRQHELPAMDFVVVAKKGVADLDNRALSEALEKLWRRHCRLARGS
Assay: relative kcat/Km (krel) vs genomic leader AAAGAU (relative (reference leader = 1)); higher = faster RNase P cleavage
Details: fraction of substrate reacted: ~26-29% (28.66% repeat 1, 26.4% repeat 2)
In all, about 4,100 sequences were measured (“relative kcat/Km (krel) vs genomic leader AAAGAU”: median about 1.7, highest 2% from about 6.5 on). Only a selection was taken, and the highest values are over-represented in it overall.
Criterion: relative kcat/Km meeting or surpassing 4. Met: true (1). Not met: false (0).

Previously resolved entries follow.
GTCTTC true (1)
AGAAAG false (0)
AGCACG false (0)

I'd appreciate it if you could say whether AGTTAA has relative kcat/Km at least equal to 4.
true (1)

What do you have for CTAATT ?
false (0)

What do you have for GGCCTC ?
false (0)

What do you have for AAGATG ?
false (0)

----------
Target: E. coli RNase P holoenzyme (M1 P RNA + rnpA protein) (UniProt P0A7Y8)
Sequence: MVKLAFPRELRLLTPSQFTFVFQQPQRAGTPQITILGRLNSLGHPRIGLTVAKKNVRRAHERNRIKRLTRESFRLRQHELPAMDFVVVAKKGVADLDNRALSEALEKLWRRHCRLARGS
Assay: relative kcat/Km (krel) vs genomic leader AAAGAU (relative (reference leader = 1)); higher = faster RNase P cleavage
Conditions: fraction of substrate reacted: ~26-29% (28.66% repeat 1, 26.4% repeat 2)
In all, about 4,100 sequences were measured (“relative kcat/Km (krel) vs genomic leader AAAGAU”: median about 1.7, highest 2% from about 6.5 on). The full list was thinned out, with the highest values kept by preference.
Entries and their relative kcat/Km values follow.
Write no unit; give the number alone.

Solved entries:
GGCGCC 3.06
GTGTAA 2.94

If you can, please state the reported relative kcat/Km value of CGCTAT .
5.95

----------
Biological target: E. coli RNase P holoenzyme (M1 P RNA + rnpA protein)
Sequence: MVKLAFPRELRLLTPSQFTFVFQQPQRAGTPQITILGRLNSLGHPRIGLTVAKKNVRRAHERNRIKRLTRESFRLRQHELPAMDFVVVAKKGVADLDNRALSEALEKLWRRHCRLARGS
Assay: relative kcat/Km (krel) vs genomic leader AAAGAU (relative (reference leader = 1)); higher = faster RNase P cleavage
Details: fraction of substrate reacted: ~13-16% (15.68% repeat 1, 13.17% repeat 2)
In all, about 4,100 sequences were measured (“relative kcat/Km (krel) vs genomic leader AAAGAU”: median about 1.7, highest 2% from about 6.5 on). This is one part of a sample in which the highest values are shown more often than they occur.
// map relative kcat/Km to label using low end = under 2, middle = from 2 up to 4, high end = 4 and over

GGCTTT low end

Note: place this sequence into its band. Item: CTCTCG
low end

What do you have for AGAGAT ?
low end

What do you have for ATAAGA ?
middle

----------
Entries and their relative kcat/Km values follow.
Molecular target: E. coli RNase P holoenzyme (M1 P RNA + rnpA protein)
Sequence: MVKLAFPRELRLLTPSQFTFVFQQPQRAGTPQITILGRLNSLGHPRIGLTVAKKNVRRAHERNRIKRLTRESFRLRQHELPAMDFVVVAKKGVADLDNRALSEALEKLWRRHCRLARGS
Experiment: relative kcat/Km (krel) vs genomic leader AAAGAU (relative (reference leader = 1)); higher = faster RNase P cleavage
Conditions: fraction of substrate reacted: ~9-10% (9.79% repeat 1, 9.1% repeat 2)
Whole data set: some 4,100 sequences, median “relative kcat/Km (krel) vs genomic leader AAAGAU” near 1.7, cut for the highest 2% near 6.5. Many of the other results were omitted from the sample, so the highest values are more common in it than they were.
Write no unit; give the number alone.

Solved entries:
TTTCTC 2.12
GCCGTA 2.27
GACAAT 3.33
CCCATA 2.83
GTCTTG 2.05
TTCACA 4.51
CTCGTA 3.1
ATCACC 3.18

Now turn to the next sequence.
If you can, please state the reported relative kcat/Km value of TCCTGC .
4.64
